- System: cellular dehydrogenase activity
- measurement-parameters: normalized composite Z-score vs mock-treated (DMSO) wells; Conc 20 μM
Checkbox rule: MTT lower than -0.3 = Satisfied; MTT not lower than -0.3 = Not satisfied.

COc1cccc(C=CC(=O)O)c1C(C)C :: Satisfied
COc1c2c(cc3occ(-c4ccc5c(c4)OCO5)c(=O)c13)OC(C)(C)C=C2 [methyl robustone, reference compound] :: Satisfied
C[C@@H]1C(=O)O[C@H]2C[C@@]34[C@H]5C[C@@H](C(C)(C)C)[C@]36[C@@H](OC(=O)[C@@H]6O)O[C@@]4(C(=O)O5)[C@]21O [ginkgolide A] :: Satisfied
COC(=O)c1c(C)c2c(c(C)c1OC)OC(=O)c1c(C)c(Cl)c(OC)c(Cl)c1O2 :: Satisfied

**Q:** MTT strictly < -0.3 for this compound? CC1OC(OC2C(O)COC(OC3C(C)OC(OC4C(OC(=O)C56CCC(C)(C)CC5C5=CCC7C8(C)CCC(OC9OC(CO)C(O)C(O)C9O)C(C)(C)C8CCC7(C)C5(C)CC6O)OCC(O)C4O)C(O)C3O)C2O)C(O)C(O)C1O (stereo not drawn)
**A:** Satisfied

**Q:** Strictly below -0.3: is that where MTT of O=C(O[C@@H]1Cc2c(O)cc(O)cc2O[C@@H]1c1cc(O)c(O)c(O)c1-c1c([C@H]2Oc3cc(O)cc(O)c3C[C@H]2OC(=O)c2cc(O)c(O)c(O)c2)cc(O)c(O)c1O)c1cc(O)c(O)c(O)c1 [2′,2′-bisepigallocatechin digallate] sits?
**A:** Satisfied

meta.source: patent US20090143279A1
